Please provide measured Activity for the entries that follow.
- Tested target: Nuclear factor NF-kappa-B complex (Homo sapiens) (UniProt Q00653+P19838+Q04206)
- Sequence (P19838 whole entry, looked up): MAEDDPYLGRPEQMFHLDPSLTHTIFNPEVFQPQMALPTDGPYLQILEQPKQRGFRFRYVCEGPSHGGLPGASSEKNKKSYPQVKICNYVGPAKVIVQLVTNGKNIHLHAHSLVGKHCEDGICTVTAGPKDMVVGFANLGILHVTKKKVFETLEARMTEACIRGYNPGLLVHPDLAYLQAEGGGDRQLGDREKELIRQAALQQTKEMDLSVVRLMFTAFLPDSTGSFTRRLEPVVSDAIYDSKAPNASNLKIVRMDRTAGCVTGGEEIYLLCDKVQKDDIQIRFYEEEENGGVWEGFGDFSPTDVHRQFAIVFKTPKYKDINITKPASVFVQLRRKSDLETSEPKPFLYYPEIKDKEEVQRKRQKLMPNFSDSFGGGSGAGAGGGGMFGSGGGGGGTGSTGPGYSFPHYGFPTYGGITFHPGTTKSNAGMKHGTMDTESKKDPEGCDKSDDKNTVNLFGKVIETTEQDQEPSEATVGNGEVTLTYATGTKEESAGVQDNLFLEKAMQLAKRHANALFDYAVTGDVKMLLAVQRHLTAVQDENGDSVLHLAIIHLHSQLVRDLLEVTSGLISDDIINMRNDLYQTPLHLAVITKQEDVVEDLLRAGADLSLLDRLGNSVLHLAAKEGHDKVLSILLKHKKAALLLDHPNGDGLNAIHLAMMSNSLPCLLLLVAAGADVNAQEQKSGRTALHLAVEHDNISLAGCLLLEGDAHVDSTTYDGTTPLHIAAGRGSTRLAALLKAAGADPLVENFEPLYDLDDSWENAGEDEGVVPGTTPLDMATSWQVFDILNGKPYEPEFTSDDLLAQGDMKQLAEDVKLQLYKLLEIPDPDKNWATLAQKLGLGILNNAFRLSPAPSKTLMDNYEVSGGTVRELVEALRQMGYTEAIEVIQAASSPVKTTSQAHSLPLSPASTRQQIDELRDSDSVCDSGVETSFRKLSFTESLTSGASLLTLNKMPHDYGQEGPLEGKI
- Sequence (Q00653 whole entry, looked up): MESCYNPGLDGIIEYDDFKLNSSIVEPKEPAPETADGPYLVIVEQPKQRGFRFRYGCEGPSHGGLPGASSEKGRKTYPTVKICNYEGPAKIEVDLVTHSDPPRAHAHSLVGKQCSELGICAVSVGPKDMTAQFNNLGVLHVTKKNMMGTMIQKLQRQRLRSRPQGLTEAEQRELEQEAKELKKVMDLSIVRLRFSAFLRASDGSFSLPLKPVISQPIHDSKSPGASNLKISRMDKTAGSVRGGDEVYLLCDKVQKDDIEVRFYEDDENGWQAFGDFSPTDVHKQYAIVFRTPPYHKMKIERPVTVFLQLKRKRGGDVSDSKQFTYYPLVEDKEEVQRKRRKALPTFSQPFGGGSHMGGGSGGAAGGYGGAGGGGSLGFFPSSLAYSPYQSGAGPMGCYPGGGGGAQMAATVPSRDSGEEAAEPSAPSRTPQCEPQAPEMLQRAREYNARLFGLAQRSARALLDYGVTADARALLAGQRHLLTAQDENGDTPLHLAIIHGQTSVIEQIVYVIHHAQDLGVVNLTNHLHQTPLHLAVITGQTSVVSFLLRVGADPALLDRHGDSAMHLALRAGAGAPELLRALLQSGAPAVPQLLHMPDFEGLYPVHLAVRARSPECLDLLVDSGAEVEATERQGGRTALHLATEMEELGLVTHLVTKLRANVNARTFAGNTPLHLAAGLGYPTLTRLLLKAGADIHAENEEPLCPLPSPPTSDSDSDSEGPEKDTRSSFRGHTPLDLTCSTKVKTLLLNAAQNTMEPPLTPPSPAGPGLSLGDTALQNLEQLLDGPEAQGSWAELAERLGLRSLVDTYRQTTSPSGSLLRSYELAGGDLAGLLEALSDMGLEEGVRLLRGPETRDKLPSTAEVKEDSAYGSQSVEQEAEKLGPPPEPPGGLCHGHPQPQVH
- Sequence (Q04206 whole entry, looked up): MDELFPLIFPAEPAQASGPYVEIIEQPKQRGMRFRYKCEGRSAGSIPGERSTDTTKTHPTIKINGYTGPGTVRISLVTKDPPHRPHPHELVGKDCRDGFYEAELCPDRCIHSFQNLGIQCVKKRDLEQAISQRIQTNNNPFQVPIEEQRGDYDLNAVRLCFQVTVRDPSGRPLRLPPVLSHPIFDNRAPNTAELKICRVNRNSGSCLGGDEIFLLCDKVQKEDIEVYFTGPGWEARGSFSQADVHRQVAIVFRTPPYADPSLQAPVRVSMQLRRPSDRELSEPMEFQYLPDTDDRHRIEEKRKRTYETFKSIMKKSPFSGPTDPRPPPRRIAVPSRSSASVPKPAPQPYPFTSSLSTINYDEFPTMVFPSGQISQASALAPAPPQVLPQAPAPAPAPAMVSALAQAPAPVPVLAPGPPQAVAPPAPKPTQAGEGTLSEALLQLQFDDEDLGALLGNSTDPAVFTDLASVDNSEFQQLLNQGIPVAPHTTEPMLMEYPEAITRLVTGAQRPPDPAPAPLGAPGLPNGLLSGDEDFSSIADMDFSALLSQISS
- Assay protocol: Activation of NF-kappaB in human THP1-Blue NF-kappaB cells co-expressing NFkappaB-inducible SEAP assessed as increase in SEAP activity at 5 uM measured after 20 hrs by quanti-blue based colorimetric assay relative to control
- Type: cell-based
- Settings: filed as activator
Respond with the bare value in %.

Reported Activity of Cc1ccc(Br)cc1-c1csc(NC(=O)c2ccc(S(=O)(=O)N3CCCCC3)cc2)n1 : 207

// sample CCCCCc1sc(NC(=O)c2ccc(S(=O)(=O)N3CCCCC3)cc2)nc1-c1cc(C)ccc1C , its Activity was 117

So, COc1cc(C(=O)Nc2nc(-c3cc(C)ccc3C)cs2)ccc1S(=O)(=O)N1CCCCC1 ? Its Activity was 99

The recorded Activity for entry Cc1ccc(C)c(-c2csc(NC(=O)c3ccc(S(=O)(=O)N4CCCCC4)cn3)n2)c1 equals 99

Please fill in: Activity reported for Cc1cccc(-c2csc(NC(=O)c3ccc(S(=O)(=O)N4CCCCC4)cc3)n2)c1C = 179

Lab book: Activity of CCc1ccc(C)c(-c2csc(NC(=O)c3ccc(S(=O)(=O)N4CCCCC4)cc3)n2)c1 noted as 203

Please fill in: Activity reported for Cc1ccc(C)c(-c2csc(NC(=O)c3ccc(S(=O)(=O)N4CCCCC4)cc3Br)n2)c1 = 120

Kindly note the recorded Activity for Cc1ccc(C)c(-c2csc(NC(=O)c3ccc(C(=O)N4CCCCC4)cc3)n2)c1 , which is 99

compound CCCC1CCN(S(=O)(=O)c2ccc(C(=O)Nc3nc(-c4cc(C)ccc4Br)cs3)cc2)CC1 , Activity observed: 191

Activity recorded for this compound, CCCN(CCC)S(=O)(=O)c1ccc(C(=O)Nc2nc(-c3cc(C)ccc3C)cs2)cc1 , is 167

Value of measured Activity for the entry Cc1ccc(C)c(-c2csc(NC(=O)c3ccc(S(=O)(=O)N4CCCCC4)cc3)n2)c1 : 200

Noted for Cc1ccc(C)c(-c2csc(N(C)C(=O)c3ccc(S(=O)(=O)N4CCCCC4)cc3)n2)c1 : its Activity reads 101

Activity reading for CCc1sc(NC(=O)c2ccc(S(=O)(=O)N3CCCCC3)cc2)nc1-c1cc(C)ccc1C : 179

# compound CCCC#Cc1sc(NC(=O)c2ccc(S(=O)(=O)N3CCCCC3)cc2)nc1-c1cc(C)ccc1Br ; its Activity = 202

For Cc1ccc(C)c(-c2nc(NC(=O)c3ccc(S(=O)(=O)N4CCCCC4)cc3)sc2Br)c1 the compound record lists Activity as 133

Reported Activity ( Cc1ccc(C)c(-c2csc(NS(=O)(=O)c3ccc(C(=O)N4CCCCC4)cc3)n2)c1 ) = 103

The reported value for CCCCN(CCCC)S(=O)(=O)c1ccc(C(=O)Nc2nc(-c3cc(C)ccc3C)cs2)cc1 in terms of Activity is 102

###

- Tested target: Nuclear factor NF-kappa-B complex (Homo sapiens) (UniProt Q00653+P19838+Q04206)
- Assay protocol: Activation of NF-kappaB in human THP1-Blue NF-kappaB cells co-expressing NFkappaB-inducible SEAP assessed as increase in SEAP activity at 5 uM measured after 20 hrs by quanti-blue based colorimetric assay relative to control
- Type: cell-based
- Settings: filed as activator
# Activity >= 200% gives true (1), anything below gives false (0)

Exam item: decide whether the reported Activity for Cc1ccc(C)c(Cc2csc(NC(=O)c3ccc(S(=O)(=O)N4CCCCC4)cc3)n2)c1 is at least 200%.
false (0)

Please check the record CCC#Cc1sc(NC(=O)c2ccc(S(=O)(=O)N3CCCCC3)cc2)nc1-c1cc(C)ccc1C and state if its Activity is at or above 200%.
true (1)

Is the recorded value of Activity equal to or greater than 200% for this compound? Cc1ccc(C)c(-c2csc(NC(=O)c3ccc(S(=O)(=O)N4CCCCC4)c(Cl)c3)n2)c1
true (1)

Form field: Activity at least 200%? Entry: CCOc1sc(NC(=O)c2ccc(S(=O)(=O)N3CCCCC3)cc2)nc1-c1cc(C)ccc1C
false (0)

Record Cc1ccc(C)c(-c2csc(C(=O)Nc3ccc(S(=O)(=O)N4CCCCC4)cc3)n2)c1 ; criterion: Activity no lower than 200%. Met?
false (0)
